Target: mTOR (Homo sapiens, UniProt P42345)
Construct: FLAG; made in house
Sequence (P42345 1362-2549): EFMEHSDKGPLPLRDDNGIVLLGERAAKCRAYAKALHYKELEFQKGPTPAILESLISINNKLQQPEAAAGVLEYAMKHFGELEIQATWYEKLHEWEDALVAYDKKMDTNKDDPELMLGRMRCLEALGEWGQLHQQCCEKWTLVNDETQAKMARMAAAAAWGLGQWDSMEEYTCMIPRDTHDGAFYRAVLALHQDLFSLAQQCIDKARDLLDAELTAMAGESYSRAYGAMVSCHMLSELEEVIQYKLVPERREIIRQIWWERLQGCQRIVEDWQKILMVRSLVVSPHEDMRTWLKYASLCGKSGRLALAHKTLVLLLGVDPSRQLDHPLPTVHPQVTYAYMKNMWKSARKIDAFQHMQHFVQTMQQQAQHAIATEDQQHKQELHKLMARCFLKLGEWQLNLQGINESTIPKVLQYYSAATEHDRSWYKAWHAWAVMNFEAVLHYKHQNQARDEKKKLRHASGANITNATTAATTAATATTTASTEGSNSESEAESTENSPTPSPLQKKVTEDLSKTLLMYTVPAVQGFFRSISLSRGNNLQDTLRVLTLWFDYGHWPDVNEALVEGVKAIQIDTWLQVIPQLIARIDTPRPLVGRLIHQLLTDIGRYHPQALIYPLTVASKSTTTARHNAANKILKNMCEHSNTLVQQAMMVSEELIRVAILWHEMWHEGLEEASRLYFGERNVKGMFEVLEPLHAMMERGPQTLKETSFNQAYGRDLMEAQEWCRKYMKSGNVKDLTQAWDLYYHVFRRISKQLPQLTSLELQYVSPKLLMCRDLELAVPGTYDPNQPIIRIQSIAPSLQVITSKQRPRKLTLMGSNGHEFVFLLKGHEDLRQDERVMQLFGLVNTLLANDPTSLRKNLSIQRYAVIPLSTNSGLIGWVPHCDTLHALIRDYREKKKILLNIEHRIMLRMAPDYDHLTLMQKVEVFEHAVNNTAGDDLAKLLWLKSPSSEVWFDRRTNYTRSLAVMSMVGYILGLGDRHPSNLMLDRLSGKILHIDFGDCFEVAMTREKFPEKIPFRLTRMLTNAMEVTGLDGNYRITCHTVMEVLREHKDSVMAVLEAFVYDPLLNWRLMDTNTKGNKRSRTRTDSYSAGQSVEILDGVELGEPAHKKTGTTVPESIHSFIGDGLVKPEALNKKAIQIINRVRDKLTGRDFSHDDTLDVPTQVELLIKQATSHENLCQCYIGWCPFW
Experiment: In Vitro mTOR Kinase Assay (Echo), Test (a)(ii)
Format: biochemical
Settings: table of enzyme assay Test (a)(ii); read-out: Test (a)(ii) IC50
READOUT: IC50 (nM)

[[record]]
compound = "CCS(=O)(=O)C1(c2cc(N3CCOC[C@@H]3C)nc(-c3ccc(NC(=O)NCc4ncc[nH]4)cc3)n2)CCC1 [Example 87a]"
readout = "IC50"
value = 88.7


(A) C[C@H]1COCCN1c1cc(C2(S(C)(=O)=O)CC2)nc(-c2ccc(NC(=O)Nc3ccc(F)c(F)c3)cc2)n1 [Example 2q]
(B) C[C@H]1COCCN1c1cc(C2(S(=O)(=O)c3ccc(C#N)cc3)CC2)nc(-c2ccc(NC(=O)Nc3cnn(C)c3)cc2)n1 [Example 77f]
(C) C[C@H]1COCCN1c1cc(C2(S(=O)(=O)C3CCCCC3)CC2)nc(-c2ccc(NC(=O)NCCN(C)C)cc2)n1 [Example 26c]
Prompt: Descending sort on IC50 required. Answer format: the labels, in the requested order.
Response: C, B, A

###

Target: mTOR (Homo sapiens, UniProt P42345)
Construct: FLAG; made in house
Assay: In Vitro mTOR Kinase Assay (Echo), Test (a)(ii)
Type: biochemical
Conditions: table of enzyme assay Test (a)(ii); read-out: Test (a)(ii) IC50
READOUT: IC50 (nM)

Solved entries (count: 4):
[[record]]
compound = "C[C@H]1COCCN1c1cc(C2(S(=O)(=O)c3cccc(F)c3)CC2)nc(-c2ccc(NC(=O)Nc3cnn(C)c3)cc2)n1 [Example 53f]"
value = 6.34

[[record]]
compound = "CC(C)CNC(=O)Nc1ccc(-c2nc(N3CCOC[C@@H]3C)cc(C3(S(=O)(=O)c4ccccn4)CC3)n2)cc1 [Example 28c]"
value = 8.47

[[record]]
compound = "C[C@H]1COCCN1c1cc(C2(S(=O)(=O)CCCO)CCC2)nc(-c2ccc(NC(=O)NCCC#N)cc2)n1 [Example 43c]"
value = 28.8

[[record]]
compound = "C[C@H]1COC[C@H](C)N1c1cc(C2(S(=O)(=O)C3CC3)CC2)nc(-c2ccc(NC(=O)NCCO)cc2)n1 [Example 92f]"
value = 6.25


(a) C[C@H]1COCCN1c1cc(C2(S(=O)(=O)c3ccccc3)CC2)nc(-c2ccc(NC(=O)N(C)C3CC3)cc2)n1 [Example 36dr]
(b) C[C@H]1COCCN1c1cc(C2(S(=O)(=O)c3ccc(F)cc3)CC2)nc(-c2cnc(NC(=O)NC3CC3)nc2)n1 [Example 14e]
(c) Cn1cc(NC(=O)Nc2ccc(-c3nc(N4CCOCC4)cc(C4(S(=O)(=O)c5ccncc5)CC4)n3)cc2)cn1 [Example 36as]
Prompt: Put the compounds in ascending order of IC50. Answer format: the labels, in the requested order.
Response: c, b, a
(c: 9.11 nM, b: 110 nM, a: 294 nM)

###

Molecular target: mTOR (Homo sapiens, UniProt P42345)
Construct: FLAG; made in house
Test: In Vitro mTOR Kinase Assay (Echo), Test (a)(ii)
Assay type: biochemical
Settings: table of enzyme assay Test (a)(ii); read-out: Test (a)(ii) IC50
pIC50: −log10 of the molar value.
READOUT: pIC50

Solved entries (count: 10):
[[record]]
molecule = "C[C@H]1COCCN1c1cc(C2(S(=O)(=O)C3CCCCC3)CC2)nc(-c2ccc(NC(=O)NC3CC3)cc2)n1"
value = 8.22

[[record]]
molecule = "CNC(=O)Nc1ccc(-c2nc(N3CCOC[C@@H]3C)cc(C3(S(=O)(=O)CCCO)CCOCC3)n2)cc1 [Example 36ca]"
value = 6.51

[[record]]
molecule = "CC[C@H]1COCCN1c1cc(C2(S(C)(=O)=O)CC2)nc(-c2ccc(NC(=O)NCCO)cc2)n1 [Example 84b]"
value = 8.41

[[record]]
molecule = "CNC(=O)Nc1ccc(-c2nc(N3CCOC[C@@H]3C)cc(C3(S(=O)(=O)C(C)(C)C)CC3)n2)cc1 [Example 18i]"
value = 8.26

[[record]]
molecule = "C[C@H]1COCCN1c1cc(C2(S(C)(=O)=O)CC2)nc(-c2ccc(NC(=S)NCCC#N)cc2)n1"
value = 7.51

[[record]]
molecule = "C[C@H]1COC[C@H](C)N1c1cc(C2(S(=O)(=O)c3ccccc3)CC2)nc(-c2ccc(NC(=O)NCC(F)F)cc2)n1 [Example 93d]"
value = 9.09

[[record]]
molecule = "C[C@H]1COCCN1c1cc(C2(S(=O)(=O)c3ccc(C(N)=O)cc3Cl)CC2)nc(-c2ccc(NC(=O)NCCF)cc2)n1 [Example 85c]"
value = 8.29

[[record]]
molecule = "C[C@H]1COCCN1c1cc(C2(S(=O)(=O)c3ccc(C#N)cc3)CC2)nc(-c2ccc(NC(=O)NCCF)cc2)n1 [Example 77e]"
value = 8.29

[[record]]
molecule = "CC[C@H]1COCCN1c1cc(C2(S(=O)(=O)c3ccccc3)CC2)nc(-c2ccc(NC(=O)N[C@@H](C)CO)cc2)n1 [Example 74f]"
value = 8.40

[[record]]
molecule = "C[C@H]1COCCN1c1cc(C2(S(C)(=O)=O)CCCC2)nc(-c2ccc(NC(=O)NCCN(C)C)nc2)n1 [Example 14p]"
value = 6.27


(P) Cc1ccc(S(=O)(=O)C2(c3cc(N4CCOC[C@@H]4C)nc(-c4ccc(NC(=O)NC5CC5)cc4)n3)CCC2)cc1
(Q) C[C@H]1COCCN1c1cc(C2(S(=O)(=O)c3cc(F)cc(F)c3)CC2)nc(-c2ccc(NC(=O)NCCO)cc2)n1 [Example 19g]
Prompt: P or Q : whose pIC50 is greater? Output the label that corresponds to your choice.
Response: Q

(a) C[C@H]1COCCN1c1cc(C2(S(=O)(=O)c3ccc(C#N)cc3Cl)CC2)nc(-c2ccc(NC(=O)NCCF)cc2)n1 [Example 85i]
(b) Cc1csc(S(=O)(=O)C2(c3cc(N4CCOC[C@@H]4C)nc(-c4ccc(NC(=O)NC5CCC5)cc4)n3)CC2)n1 [Example 25a]
(c) CC[C@H]1COCCN1c1cc(C2(S(C)(=O)=O)CC2)nc(-c2ccc(NC(=O)NCCF)cc2)n1 [Example 84c]
(d) Cc1csc(S(=O)(=O)C2(c3cc(N4CCOCC4)nc(-c4ccc(NC(=O)NC(C)C)cc4)n3)CC2)n1 [Example 42h]
Prompt: Put the molecules in ascending order of pIC50. Answer format: the labels, in the requested order.
Response: a, c, d, b

These entries and their values trace back to patent US20090018134A1.
